Source: ChEMBL document CHEMBL1201862

Test system: UACC-257
Experiment Notes: NCI tumour cell line growth inhibition, 48 h
The source made the active and inactive calls. Cut-off read from the data, not from the text of the source: active = GI50 up to about 1.1 µM and inactive = higher.
Quantity Kind: GI50

Reference set, count: 8
Problem: Entry COC(=O)C(I(OS(=O)(=O)c1ccc(C)cc1)c1ccccc1)=P(c1ccccc1)(c1ccccc1)c1ccccc1 needs its GI50 filled in; supply it.
Solution: 17.9 µM (inactive)

Problem: Entry O=C(O)c1ccc2c(O)c(O)ccc2c1 needs its GI50 filled in; supply it.
Solution: 21.1 µM (inactive)

Problem: Entry O=C1N/C(=N/N=C/C(O)C(O)C(O)C(O)CO)N/C1=C\c1c[nH]c2ccccc12 (stereo not given) needs its GI50 filled in; supply it.
Solution: > 100 µM (inactive)

Problem: Entry CC/C(=N/O)C(C)C(=O)CCC(=O)Nc1ccc(Cl)cc1 (stereo not given) needs its GI50 filled in; supply it.
Solution: > 100 µM (inactive)

Problem: Entry Cn1c(=O)cc(/N=N\c2ccc(Cl)c(Cl)c2)[nH]c1=O needs its GI50 filled in; supply it.
Solution: 33.5 µM (inactive)

Problem: Entry COC(=O)/C=C/C(=O)Nc1cc(Cl)c(Cl)cc1CC(=O)N(C)[C@H]1CCCC[C@@H]1N1CCCC1 needs its GI50 filled in; supply it.
Solution: 3.05 µM (inactive)

Problem: Entry N#Cc1ccc(Nc2cnc3cc(N)ccc3n2)cc1 needs its GI50 filled in; supply it.
Solution: > 100 µM (inactive)

Problem: Entry CC(C)Oc1cccc(N2C(Nc3ccccc3)=Nc3ccncc3S2(=O)=O)c1 needs its GI50 filled in; supply it.
Solution: 17.4 µM (inactive)

Next:
Problem: Entry CCc1nc(N)nc(N)c1-c1ccc2c(c1)nnn2CCc1ccccc1 needs its GI50 filled in; supply it.
Solution: 22.2 µM (inactive)

Problem: Entry C/C(=N\NC(N)=O)C(CN1CCOCC1)C(c1ccccc1)c1c(O)c2ccccc2oc1=O (stereo not given) needs its GI50 filled in; supply it.
Solution: > 100 µM (inactive)

====

System: NCI-H460
Experiment Notes: NCI tumour cell line growth inhibition, 48 h
Where a name gives a salt, the structure may show the parent alone. Activity calls are given as the source filed them. No stated cut-off is given here; in the data, active = GI50 up to about 1.1 µM and inactive = higher.
Overview of reported GI50 across a group of molecules:

Reference set, count: 3
Problem: Entry Cc1occc1/C(S)=N\c1ccc(Cl)c(C(=O)OCC(F)(F)F)c1 needs its GI50 filled in; supply it.
Solution: 22.1 µM (inactive)

Problem: Entry CCCC/C=C1\CCC(CN2CCCC2)C1=O (stereo unspecified) needs its GI50 filled in; supply it.
Solution: 19.9 µM (inactive)

Problem: Entry Cc1ccc(NC(=O)CSc2nnc(Cc3ccccc3)o2)c(C)c1 needs its GI50 filled in; supply it.
Solution: > 100 µM (inactive)

Next:
Problem: Entry COc1ccc(Cc2nccc3cc(OC)c(OC)cc23)cc1OC [PAPAVERINE HYDROCHLORIDE] needs its GI50 filled in; supply it.
Solution: 19 µM (inactive)

Problem: Entry O=C1c2cc(CCl)sc2C(=O)c2ccsc21 needs its GI50 filled in; supply it.
Solution: 1.31 µM (inactive)

Problem: Entry Cc1nc2nnc(C)n2c2c1C(=O)Nc1ccccc1N2 needs its GI50 filled in; supply it.
Solution: > 100 µM (inactive)

====

Tested on: SK-MEL-2
Experiment Notes: NCI tumour cell line growth inhibition, 48 h
The source made the active and inactive calls. No stated cut-off is given here; in the data, active = GI50 up to about 1.1 µM and inactive = higher.
Please state which outcome applies, choosing from active, inactive

Example cases with answers are listed next.
Problem: I would be grateful if you could indicate the recorded call for COc1ccc(/C(=N/Nc2ccccc2)C(c2ccc(OC)cc2)C2OC(=O)c3ccccc32)cc1 (configuration not stated) .
Solution: inactive

Problem: I would be grateful if you could indicate the recorded call for CCc1ccccc1NC(=O)C(=O)C(C#N)c1ccccc1Cl (configuration not stated) .
Solution: inactive

Next:
Problem: I would be grateful if you could indicate the recorded call for CCOC(=O)C1=c2[nH]c3cccc4cccc(c43)n2C(=O)CC1 .
Solution: inactive

Problem: I would be grateful if you could indicate the recorded call for O=C(Cc1nc2ccc([N+](=O)[O-])cc2nc1O)C(=O)Nc1ccccc1[N+](=O)[O-] .
Solution: inactive

Problem: I would be grateful if you could indicate the recorded call for CC(=O)O/C=C\OC1CCCC1 .
Solution: inactive

Problem: I would be grateful if you could indicate the recorded call for C[C@@H]1CCC2[C@@H](C)[C@@H](OCCO[C@H]3OC4O[C@@]5(C)CCC6[C@H](C)CCC([C@H]3C)[C@@]46OO5)OC3O[C@@]4(C)CCC1[C@]32OO4 (some centres not stated) .
Solution: active

Problem: I would be grateful if you could indicate the recorded call for COc1cccc(NC(=O)/C(CC(=O)CC(c2ccccc2)c2c(O)c3ccccc3oc2=O)=N\NC(C)(C)C)c1OC (configuration not stated) .
Solution: inactive
